experiment: log P by HPLC (EEC Directive 79/831 Annex V.A8); type: physicochemical; conditions: [c] LC-MS, neutral range, pH 7.8, 0.001 molar aqueous ammonium hydrogencarbonate and acetonitrile
value type: log P

Illustrative cases are given below, each with its answer.
INSERT INTO measurements (compound, value_type, experimental_value) VALUES
  ('Cc1cc(C(F)(F)F)nn1CC(=O)N1CCC(c2cccc(C(=O)NCc3ccccc3Br)n2)CC1', 'log P', '3.59^[b]; 3.59^[c]'),
  ('CN(Cc1ccc(Cl)cc1Cl)C(=O)c1cccc(C2CCN(C(=O)Cn3nc(C(F)F)cc3C(F)F)CC2)n1', 'log P', 3.73),
  ('Cc1cc(C(F)(F)F)nn1CC(=O)N1CCC(c2cccc(C(=O)NCc3ccc(Cl)cc3Cl)n2)CC1', 'log P', 4),
  ('O=C(NCc1ccccc1Br)c1cccc(C2CCN(C(=O)Cn3nc(C(F)F)cc3C(F)F)CC2)n1', 'log P', 3.47),
  ('Cc1cc(C(F)(F)F)nn1CC(=O)N1CCC(c2cccc(C(=O)NC3CCCCC3)n2)CC1', 'log P', '3.46^[c]');

Fill in: log P of Cc1cc(C(F)(F)F)nn1CC(=O)N1CCN(c2cccc(C(=O)OC3C=CCCC3)n2)CC1 (stereo not shown) is ___
3.7

// same read-out, input: O=C(NCc1ccccc1Cl)c1cccc(N2CCN(C(=O)Cn3nc(C(F)F)cc3C(F)F)CC2)n1
3.26

###

assay: log P by HPLC (EEC Directive 79/831 Annex V.A8); format: physicochemical; details: [c] LC-MS, neutral range, pH 7.8, 0.001 molar aqueous ammonium hydrogencarbonate and acetonitrile
# log P per entry
Reply with the value as a number alone.

Please review the following examples before continuing.
INSERT INTO measurements (compound, experimental_value) VALUES
  ('Cc1cc(C(F)(F)F)nn1CC(=O)N1CCC(c2cccc(C(=O)Nc3cccc4cccnc34)n2)CC1 [Example 31]', 4.04),
  ('O=C(SCc1ccccc1Cl)c1cccc(N2CCN(C(=O)Cn3nc(C(F)F)cc3C(F)F)CC2)n1 [Example 127]', 4.44),
  ('Cc1cc(C(F)(F)F)nn1CC(=O)N1CCC(c2cccc(C(=O)SCc3ccc(Cl)cc3Cl)n2)CC1 [Example 55]', 5.21),
  ('Cc1ccccc1CSC(=O)c1cccc(N2CCN(C(=O)Cn3nc(C(F)(F)F)cc3C)CC2)n1 [Example 145]', 4.55),
  ('O=C(Sc1ccccc1)c1cccc(N2CCN(C(=O)Cn3nc(C(F)F)cc3C(F)F)CC2)n1 [Example 122]', 3.81);

Which value of log P has been reported for Cc1cc(C(F)(F)F)nn1CC(=O)N1CCC(c2cccc(C(=O)NCc3ccccn3)n2)CC1 [Example 25] in the records?
2.44

Next compound up: Cc1cc(C(F)(F)F)nn1CC(=O)N1CCN(c2cccc(C(=O)Oc3cccc4ccccc34)n2)CC1 [Example 75]
4

// next record CN(C(=O)c1cccc(N2CCN(C(=O)Cn3nc(C(F)F)cc3C(F)F)CC2)n1)C1CCCc2ccccc21 (stereo not drawn) [Example 143]
3.45

###

test: log P by HPLC (EEC Directive 79/831 Annex V.A8); type: physicochemical; conditions: [b] LC-MS, acidic range, pH 2.7, 0.1% aqueous formic acid and acetonitrile
# log P per entry
Returns: the value as a bare number; no unit string appended.

Could you tell me which log P is on file for Cc1cc(C(F)(F)F)nn1CC(=O)N1CCN(c2cccc(C(=O)N(C)Cc3ccccc3Br)n2)CC1 ?
3.44

One more molecule: Cc1cc(C(F)(F)F)nn1CC(=O)N1CCC(c2cccc(C(=O)NCc3c(F)cccc3F)n2)CC1
3.33

Okay, and Cc1cc(C(F)(F)F)nn1CC(=O)N1CCC(c2cccc(C(=O)N(C)Cc3ccccc3Br)n2)CC1 ?
3.47

Another molecule to look at: CCCCCCCNC(=O)c1cccc(C2CCN(C(=O)Cn3nc(C(F)F)cc3C(F)F)CC2)n1
3.96

###

test: log P by HPLC (EEC Directive 79/831 Annex V.A8); format: physicochemical; conditions: [b] LC-MS, acidic range, pH 2.7, 0.1% aqueous formic acid and acetonitrile
Marks after values point to notes of the source that are not given here.
value type: log P

Examples from the recorded data:
INSERT INTO results (compound, value_type, experimental_value) VALUES
  ('Cc1cc(C(F)(F)F)nn1CC(=O)N1CCC(c2cccc(C(=O)OCc3ccccc3Cl)n2)CC1', 'log P', '3.84^[b]'),
  ('Cc1cc(C(F)(F)F)nn1CC(=O)N1CCN(c2cccc(C(=O)NCc3ccccc3Cl)n2)CC1', 'log P', 3.34),
  ('CCCCCCCOC(=O)c1cccc(C2CCN(C(=O)Cn3nc(C(F)(F)F)cc3C)CC2)n1', 'log P', '4.73^[b]'),
  ('Cc1ccnc(COC(=O)c2cccc(C3CCN(C(=O)Cn4nc(C(F)(F)F)cc4C)CC3)n2)c1', 'log P', '3.67^[b]'),
  ('Cc1ccccc1COC(=O)c1cccc(C2CCN(C(=O)Cn3nc(C(F)(F)F)cc3C)CC2)n1', 'log P', '3.8^[b]'),
  ('Cc1cc(C(F)(F)F)nn1CC(=O)N1CCC(c2cccc(C(=O)Sc3ccccc3)n2)CC1', 'log P', '3.95^[b]; 3.95^[c]');

Return reported log P; argument: COC1CCCCC1OC(=O)c1cccc(C2CCN(C(=O)Cn3nc(C(F)F)cc3C(F)F)CC2)n1 (centres unmarked)
4.17^[b]

Repeat for the following compound: Cc1cc(C(F)(F)F)nn1CC(=O)N1CCC(c2cccc(C(=O)Sc3cccc4ccccc34)n2)CC1
4.41

Follow-up item: O=C(OC1C=CCCC1)c1cccc(C2CCN(C(=O)Cn3nc(C(F)F)cc3C(F)F)CC2)n1 (centres unmarked)
3.87^[b]

Also O=C(OCc1c(F)cc(F)cc1F)c1cccc(C2CCN(C(=O)Cn3nc(C(F)F)cc3C(F)F)CC2)n1 ?
3.57^[b]

Entry to check: Cc1cc(C(F)(F)F)nn1CC(=O)N1CCC(c2cccc(C(=O)N3CCOc4ccccc43)n2)CC1
3.04^[b]; 3.04^[c]

###

log P values for the compounds below.
experiment: log P by HPLC (EEC Directive 79/831 Annex V.A8); format: physicochemical; settings: [b] LC-MS, acidic range, pH 2.7, 0.1% aqueous formic acid and acetonitrile
Marks after values point to notes of the source that are not given here.

Recorded log P, per entry:
INSERT INTO measurements (structure_smiles_string, value_type, experimental_value) VALUES
  ('Cc1cc(C(F)(F)F)nn1CC(=O)N1CCC(c2cccc(C(=O)OCc3ccccc3C(F)(F)F)n2)CC1', 'log P', '3.97^[b]'),
  ('Cc1cc(C(F)(F)F)nn1CC(=O)N1CCC(c2cccc(C(=O)OCc3c(F)cccc3F)n2)CC1', 'log P', '3.51^[b]'),
  ('COCCOC(=O)c1cccc(C2CCN(C(=O)Cn3nc(C(F)(F)F)cc3C)CC2)n1', 'log P', '2.46^[b]'),
  ('Cc1cc(C(F)(F)F)nn1CC(=O)N1CCC(c2cccc(C(=O)OCC(C)(C)C)n2)CC1', 'log P', '3.86^[b]'),
  ('Cc1cc(C(F)(F)F)nn1CC(=O)N1CCC(c2cccc(C(=O)NCc3ccccc3Br)n2)CC1', 'log P', '3.59^[b]; 3.59^[c]');

Any idea what log P was measured for Cc1cc(C(F)(F)F)nn1CC(=O)N1CCC(c2cccc(C(=O)Oc3cccc4ccccc34)n2)CC1 ?
3.97^[b]

Same thing, different compound: O=C(Oc1cccc2ccccc12)c1cccc(C2CCN(C(=O)Cn3nc(C(F)F)cc3C(F)F)CC2)n1
3.82^[b]

Likewise for Cc1cc(C(F)(F)F)nn1CC(=O)N1CCC(c2cccc(C(=O)OCCCC(F)(F)F)n2)CC1 ?
3.37^[b]

Param item: Cc1cc(C(F)(F)F)nn1CC(=O)N1CCC(c2cccc(C(=O)OCc3ccccc3F)n2)CC1
3.52^[b]

Param item: O=C(NCc1ccc(Cl)cc1Cl)c1cccc(C2CCN(C(=O)Cn3nc(C(F)F)cc3C(F)F)CC2)n1
3.86^[b]; 3.86^[c]

Could you do the same for Cc1cc(C(F)(F)F)nn1CC(=O)N1CCC(c2cccc(C(=O)N(C)Cc3ccc(Cl)cc3Cl)n2)CC1 , please?
3.85^[b]; 3.85^[c]

###

assay: log P by HPLC (EEC Directive 79/831 Annex V.A8); type: physicochemical; settings: [b] LC-MS, acidic range, pH 2.7, 0.1% aqueous formic acid and acetonitrile
Listing of entries alongside the reported log P.

INSERT INTO results (compound, experimental_value) VALUES
  ('O=C(OCc1ccc(F)cc1F)c1cccc(C2CCN(C(=O)Cn3nc(C(F)F)cc3C(F)F)CC2)n1', '3.54^[b]'),
  ('Cc1cc(C(F)(F)F)nn1CC(=O)N1CCC(c2cccc(C(=O)OC(C)c3ccccc3Cl)n2)CC1 (centres unmarked)', '4.12^[b]'),
  ('Cc1cc(C(F)(F)F)nn1CC(=O)N1CCC(c2cccc(C(=O)OC3CCCc4ccccc43)n2)CC1 (centres unmarked)', '4.15^[b]'),
  ('O=C(OC1CCCCC1F)c1cccc(C2CCN(C(=O)Cn3nc(C(F)F)cc3C(F)F)CC2)n1 (centres unmarked)', '3.37^[b]');

Now look at this one.
// lookup log P for O=C(OCc1c(F)cccc1F)c1cccc(C2CCN(C(=O)Cn3nc(C(F)F)cc3C(F)F)CC2)n1
3.44^[b]

Cited source: patent US8604040B2
